Hey, just so you know, these numbers are from patent US12655141B2.

Test system: NOTCH positive/driven human T cell acute lymphoblastic leukemia cell line RPMI 8402
Experiment: Alamar blue anti-proliferative assay
Type: cell-based
Settings: Homo sapiens, RPMI 8402, RPMI8402, 72 hours, concentration range 0.01-10 μM
Method: Alamarblue® and PrestoBlue proliferation assays were performed to determine the growth kinetics of Notch inhibitor treated cells. Alamar Blue® and PrestoBlue consists of a cell permeable substrate resazurin. In metabolically active and proliferating cells, resazurin is converted to resorufin due to an intrinsic reducing power of live cells and produces a red fluorescence. Therefore production of resorufin serves as an indicator of the viability of the cell population. […]
reported endpoint: log10(IC50) (log10 of the value in nM)
Heads up, the numbers here are log10 of IC50 in nM units.

Below are worked cases with known answers.
| molecule | target desc | reported endpoint | value observed |
| --- | --- | --- | --- |
| CNc1ccc(Oc2ccc(-c3ccccc3)cc2)c(F)c1 | NOTCH positive/driven human T cell acute lymphoblastic leukemia cell line RPMI 8402 | log10(IC50) | 2.85 |
| CNc1ccc(Oc2ccc(-c3ccccc3)nc2)nc1 | NOTCH positive/driven human T cell acute lymphoblastic leukemia cell line RPMI 8402 | log10(IC50) | 2.70 |
| Cc1cc(Oc2ccc(-c3ccccc3)cc2)ncc1N | NOTCH positive/driven human T cell acute lymphoblastic leukemia cell line RPMI 8402 | log10(IC50) | 2.04 |
| CC(C)(C)c1ccc(Oc2ccc(N)cn2)cc1 [6-(4-tert-butylphenoxy)pyridin-3-amine, reference compound] | NOTCH positive/driven human T cell acute lymphoblastic leukemia cell line RPMI 8402 | log10(IC50) | 2.87 |

Consider the following items and state reported log10(IC50) for each.
1. Nc1ccc(Oc2ccc(-c3ccc(F)cc3)cc2)nc1
2. Cc1nc(Oc2ccc(-c3ccccc3)cc2)ccc1N
3. Nc1ccc(Oc2ccc(-c3ccccc3)cc2)cc1 [Example 7, 4-([1,1′-Biphenyl]-4-yloxy)aniline]
4. Nc1ccc(OCCc2cc(Oc3ccc(N)cn3)ccc2-c2ccccc2)cc1
5. CNc1ccc(Oc2ccc(-c3ccccc3)cc2)nc1

1: 1.92; 2: 2.04; 3: 2.23; 4: 2.96; 5: 2.04
